molecular target: RPS6KA2 KD2 (human) (UniProt Q15349); assay: KINOMEscan competition binding; conditions: compound 10.0 µM
Sequence (Q15349 whole entry, looked up): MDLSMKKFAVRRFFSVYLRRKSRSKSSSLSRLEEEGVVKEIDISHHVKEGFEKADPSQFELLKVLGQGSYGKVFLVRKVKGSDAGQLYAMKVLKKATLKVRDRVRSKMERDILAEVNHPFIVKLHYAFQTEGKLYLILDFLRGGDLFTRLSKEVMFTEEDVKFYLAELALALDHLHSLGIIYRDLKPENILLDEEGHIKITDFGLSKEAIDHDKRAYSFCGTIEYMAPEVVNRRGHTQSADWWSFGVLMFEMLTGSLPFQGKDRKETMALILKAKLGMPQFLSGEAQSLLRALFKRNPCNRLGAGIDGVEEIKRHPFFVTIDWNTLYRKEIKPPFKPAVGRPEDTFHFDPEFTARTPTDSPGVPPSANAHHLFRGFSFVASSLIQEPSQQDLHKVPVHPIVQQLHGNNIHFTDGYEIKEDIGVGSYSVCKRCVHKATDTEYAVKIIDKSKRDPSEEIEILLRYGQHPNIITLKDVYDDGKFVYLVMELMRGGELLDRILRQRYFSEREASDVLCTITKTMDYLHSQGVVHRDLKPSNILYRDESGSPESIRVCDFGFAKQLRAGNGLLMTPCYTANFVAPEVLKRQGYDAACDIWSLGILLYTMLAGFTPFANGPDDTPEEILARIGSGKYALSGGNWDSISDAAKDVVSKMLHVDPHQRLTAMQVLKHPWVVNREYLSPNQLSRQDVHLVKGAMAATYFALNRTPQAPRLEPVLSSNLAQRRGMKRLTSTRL
testReadout: kinase still bound, per cent of control (%)

samplesmiles=CCN1CCN(Cc2ccc(NC(=O)c3ccc(C)c(/C=C/c4cnc5[nH]ccc5c4OC)c3)cc2C(F)(F)F)CC1 measurementtarget="RPS6KA2 KD2 (human) (UniProt Q15349)" testreadout="kinase still bound, per cent of control" readingunit=% endpointvalue=42
samplesmiles=CNC(=O)Nc1ccc(-c2nc(N3CC4CCC(C3)O4)c3cnn(C4CCC5(CC4)OCCO5)c3n2)cc1 measurementtarget="RPS6KA2 KD2 (human) (UniProt Q15349)" testreadout="kinase still bound, per cent of control" readingunit=% endpointvalue=93
samplesmiles=COc1cc2c(Nc3ccc(NC(=O)c4ccccc4)cc3)ncnc2cc1OCCCN1CCOCC1 measurementtarget="RPS6KA2 KD2 (human) (UniProt Q15349)" testreadout="kinase still bound, per cent of control" readingunit=% endpointvalue=100
samplesmiles=N#Cc1cc(-c2ccnc(Nc3ccc(-n4cnc(-c5cccnc5)n4)cc3)n2)cc(N2CCOCC2)c1 measurementtarget="RPS6KA2 KD2 (human) (UniProt Q15349)" testreadout="kinase still bound, per cent of control" readingunit=% endpointvalue=75

----------
test system: EGFR (human), P00533 [G719C]; assay: KINOMEscan competition binding; settings: compound 10.0 µM
testReadout: kinase still bound, per cent of control (%)

samplesmiles=Nc1ccc(-c2ccc3ncc4ccc(=O)n(-c5cccc(C(F)(F)F)c5)c4c3c2)cn1 endpointvalue=71
samplesmiles=Cn1c(=O)n(-c2ccc(C(C)(C)C#N)cc2)c2c3cc(-c4cnc5ccccc5c4)ccc3ncc21 endpointvalue=100
samplesmiles=C=CC(=O)Nc1cc(NC(=O)c2ccc(C)c(NC(=O)c3ccno3)c2)cc(C(F)(F)F)c1 endpointvalue=94
samplesmiles=COc1cc(N2CCC(C(N)=O)CC2)ccc1Nc1nc(N)c(Cl)c(Nc2ccccc2S(=O)(=O)C(C)C)n1 endpointvalue=20
samplesmiles=CCN1CCN(C(=O)Cc2ccc(Nc3ncc(F)c(Nc4ccc(C(=O)Nc5ccccc5Cl)cc4)n3)cc2)CC1 endpointvalue=46
samplesmiles=CN(C)C/C=C/C(=O)Nc1cccc(Nc2ncc3c(n2)N(C)c2ccccc2C(=O)N3C)c1 endpointvalue=14
samplesmiles=O=c1[nH]c2ccccc2n1C1CCN(Cc2ccc(-c3nc4cc5[nH]cnc5cc4nc3-c3ccccc3)cc2)CC1 endpointvalue=53
samplesmiles=C=CC(=O)Nc1cccc(Oc2nc(Nc3ccc(N4CCN(C)CC4)cc3OC)ncc2Cl)c1 endpointvalue=0.35

----------
biological target: DAPK1 (human); assay: KINOMEscan competition binding; settings: compound 10.0 µM
testReadout: kinase still bound, per cent of control (%)

molecule="CC1=C(C(=O)Nc2cc3cn[nH]c3cc2F)C(c2ccc(C(F)(F)F)cc2)CC(=O)N1 (configuration not stated)" testreadout="kinase still bound, per cent of control" readingunit=% endpointvalue=81
molecule=CNC(=O)Nc1ccc(-c2nc(N3CC4CCC(C3)O4)c3cnn(C4CCC5(CC4)OCCO5)c3n2)cc1 testreadout="kinase still bound, per cent of control" readingunit=% endpointvalue=12
molecule=COc1cc2c(Nc3ccc(NC(=O)c4ccccc4)cc3)ncnc2cc1OCCCN1CCOCC1 testreadout="kinase still bound, per cent of control" readingunit=% endpointvalue=84
molecule=C=CC(=O)Nc1ccc(C(=O)c2sc(Nc3ccc(N4CCN(C)CC4)cc3OC)nc2N)cc1 testreadout="kinase still bound, per cent of control" readingunit=% endpointvalue=9.4
molecule=COc1cc(N2CCC(C(N)=O)CC2)ccc1Nc1nc(N)c(Cl)c(Nc2ccccc2S(=O)(=O)C(C)C)n1 testreadout="kinase still bound, per cent of control" readingunit=% endpointvalue=100
molecule="COc1cc(C)c(Sc2cnc(NC(=O)c3ccc(CNC(C)C(C)C)cc3)s2)cc1C(=O)N1CCN(C(C)=O)CC1 (configuration not stated)" testreadout="kinase still bound, per cent of control" readingunit=% endpointvalue=100
molecule=CCN1CCN(Cc2ccc(NC(=O)c3ccc(C)c(/C=C/c4cnc5[nH]ccc5c4OC)c3)cc2C(F)(F)F)CC1 testreadout="kinase still bound, per cent of control" readingunit=% endpointvalue=100
molecule=N#Cc1cc(-c2ccnc(Nc3ccc(-n4cnc(-c5cccnc5)n4)cc3)n2)cc(N2CCOCC2)c1 testreadout="kinase still bound, per cent of control" readingunit=% endpointvalue=60
molecule=CCOc1cc(N2CCC(O)CC2)ccc1Nc1ncc2c(n1)N(C)c1ccccc1C(=O)N2C testreadout="kinase still bound, per cent of control" readingunit=% endpointvalue=100
molecule=O=c1[nH]c2ccccc2n1C1CCN(Cc2ccc(-c3nc4cc5[nH]cnc5cc4nc3-c3ccccc3)cc2)CC1 testreadout="kinase still bound, per cent of control" readingunit=% endpointvalue=100
molecule=Cc1cn(-c2cc(C(=O)Nc3ccc(C)c(NC(=O)c4ccno4)c3)cc(C(F)(F)F)c2)cn1 testreadout="kinase still bound, per cent of control" readingunit=% endpointvalue=100
molecule=N#C/C(=C1/Nc2ccccc2S1)c1ccnc(NCCc2cccnc2)n1 testreadout="kinase still bound, per cent of control" readingunit=% endpointvalue=32

----------
Listed compounds paired with reported kinase still bound, per cent of control
target: JAK1 JH2 pseudokinase (human) (UniProt P23458); assay: KINOMEscan competition binding; settings: compound 10.0 µM
Sequence (P23458 whole entry, looked up): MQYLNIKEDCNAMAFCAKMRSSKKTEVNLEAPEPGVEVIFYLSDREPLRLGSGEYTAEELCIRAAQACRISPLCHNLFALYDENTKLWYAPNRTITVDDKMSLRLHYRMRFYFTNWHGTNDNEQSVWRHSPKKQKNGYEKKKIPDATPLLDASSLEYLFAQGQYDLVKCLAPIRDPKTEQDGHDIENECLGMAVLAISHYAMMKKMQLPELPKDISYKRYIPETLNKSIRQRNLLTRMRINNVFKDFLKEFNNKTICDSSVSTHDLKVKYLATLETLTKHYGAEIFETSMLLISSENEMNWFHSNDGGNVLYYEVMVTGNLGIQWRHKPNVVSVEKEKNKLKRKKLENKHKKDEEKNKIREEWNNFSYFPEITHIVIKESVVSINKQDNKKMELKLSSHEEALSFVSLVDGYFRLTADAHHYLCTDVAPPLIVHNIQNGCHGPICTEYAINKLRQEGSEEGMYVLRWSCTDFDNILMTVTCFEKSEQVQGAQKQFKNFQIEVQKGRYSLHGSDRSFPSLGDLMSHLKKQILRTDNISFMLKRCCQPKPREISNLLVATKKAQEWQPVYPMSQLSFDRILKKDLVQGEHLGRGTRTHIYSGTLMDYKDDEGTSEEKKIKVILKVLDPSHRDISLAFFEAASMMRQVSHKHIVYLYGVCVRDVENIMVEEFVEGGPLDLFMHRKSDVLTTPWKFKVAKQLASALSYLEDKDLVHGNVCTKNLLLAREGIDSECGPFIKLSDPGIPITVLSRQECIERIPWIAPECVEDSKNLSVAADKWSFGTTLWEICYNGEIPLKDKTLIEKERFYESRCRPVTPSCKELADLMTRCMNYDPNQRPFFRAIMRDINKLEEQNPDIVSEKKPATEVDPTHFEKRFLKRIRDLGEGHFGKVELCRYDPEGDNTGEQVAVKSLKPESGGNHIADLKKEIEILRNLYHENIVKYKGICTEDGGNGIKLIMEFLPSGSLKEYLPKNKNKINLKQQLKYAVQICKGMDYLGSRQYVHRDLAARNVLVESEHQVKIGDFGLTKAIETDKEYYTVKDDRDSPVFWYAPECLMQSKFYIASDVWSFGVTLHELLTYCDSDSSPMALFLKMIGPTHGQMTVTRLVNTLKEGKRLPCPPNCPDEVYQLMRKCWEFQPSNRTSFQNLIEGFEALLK
testReadout: kinase still bound, per cent of control (%)

compound="COc1cc(C)c(Sc2cnc(NC(=O)c3ccc(CNC(C)C(C)C)cc3)s2)cc1C(=O)N1CCN(C(C)=O)CC1 (stereo not drawn)" measurementtarget="JAK1 JH2 pseudokinase (human) (UniProt P23458)" endpointvalue=100
compound=C=CC(=O)Nc1ccc(C(=O)c2sc(Nc3ccc(N4CCN(C)CC4)cc3OC)nc2N)cc1 measurementtarget="JAK1 JH2 pseudokinase (human) (UniProt P23458)" endpointvalue=65
compound=COc1ccc(N(C(=O)Oc2cc(C(=O)Nc3cccc(C(F)(F)F)c3)ccc2C)c2ccnc(Nc3ccc(N4CCN(C)CC4)cc3)n2)c(OC)c1 measurementtarget="JAK1 JH2 pseudokinase (human) (UniProt P23458)" endpointvalue=100
compound=COc1cc(N2CCC(C(N)=O)CC2)ccc1Nc1nc(N)c(Cl)c(Nc2ccccc2S(=O)(=O)C(C)C)n1 measurementtarget="JAK1 JH2 pseudokinase (human) (UniProt P23458)" endpointvalue=100
compound=O=c1[nH]c2ccccc2n1C1CCN(Cc2ccc(-c3nc4cc5[nH]cnc5cc4nc3-c3ccccc3)cc2)CC1 measurementtarget="JAK1 JH2 pseudokinase (human) (UniProt P23458)" endpointvalue=79
compound=CCN1CCN(Cc2ccc(NC(=O)c3ccc(C)c(/C=C/c4cnc5[nH]ccc5c4OC)c3)cc2C(F)(F)F)CC1 measurementtarget="JAK1 JH2 pseudokinase (human) (UniProt P23458)" endpointvalue=41
compound="CC1=C(C(=O)Nc2cc3cn[nH]c3cc2F)C(c2ccc(C(F)(F)F)cc2)CC(=O)N1 (stereo not drawn)" measurementtarget="JAK1 JH2 pseudokinase (human) (UniProt P23458)" endpointvalue=100
compound=CCCS(=O)(=O)Nc1ccc(F)c(C(=O)c2c[nH]c3ncc(Cl)cc23)c1F measurementtarget="JAK1 JH2 pseudokinase (human) (UniProt P23458)" endpointvalue=100

----------
target: CaMK1 (human) (UniProt Q14012); experiment: KINOMEscan competition binding; conditions: compound 10.0 µM
Sequence (Q14012 whole entry, looked up): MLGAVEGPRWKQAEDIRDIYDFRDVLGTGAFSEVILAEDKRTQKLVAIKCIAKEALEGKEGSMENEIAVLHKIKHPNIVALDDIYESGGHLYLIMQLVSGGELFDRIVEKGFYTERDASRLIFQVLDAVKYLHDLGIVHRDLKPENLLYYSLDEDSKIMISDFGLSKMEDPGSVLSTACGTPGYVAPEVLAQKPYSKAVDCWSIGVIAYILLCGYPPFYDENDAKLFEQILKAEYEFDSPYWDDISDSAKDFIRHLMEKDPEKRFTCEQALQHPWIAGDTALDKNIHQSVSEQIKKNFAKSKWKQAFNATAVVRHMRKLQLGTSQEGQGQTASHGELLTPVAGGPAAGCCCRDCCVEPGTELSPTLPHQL
Measured kinase still bound, per cent of control, listed per entry for reference.
testReadout: kinase still bound, per cent of control (%)

compound="COc1cc(C)c(Sc2cnc(NC(=O)c3ccc(CNC(C)C(C)C)cc3)s2)cc1C(=O)N1CCN(C(C)=O)CC1 (configuration not stated)" readingunit=% endpointvalue=100
compound=COc1ccc(N(C(=O)Oc2cc(C(=O)Nc3cccc(C(F)(F)F)c3)ccc2C)c2ccnc(Nc3ccc(N4CCN(C)CC4)cc3)n2)c(OC)c1 readingunit=% endpointvalue=100
compound=CCOc1cc(N2CCC(O)CC2)ccc1Nc1ncc2c(n1)N(C)c1ccccc1C(=O)N2C readingunit=% endpointvalue=100
compound=Cc1cn(-c2cc(C(=O)Nc3ccc(C)c(NC(=O)c4ccno4)c3)cc(C(F)(F)F)c2)cn1 readingunit=% endpointvalue=100
compound=N#C/C(=C1/Nc2ccccc2S1)c1ccnc(NCCc2cccnc2)n1 readingunit=% endpointvalue=73
compound=O=c1[nH]c2ccccc2n1C1CCN(Cc2ccc(-c3nc4cc5[nH]cnc5cc4nc3-c3ccccc3)cc2)CC1 readingunit=% endpointvalue=87
compound=CC(=O)c1c(C)c2cnc(Nc3ccc(N4CCNCC4)cn3)nc2n(C2CCCC2)c1=O readingunit=% endpointvalue=35
compound=CNC(=O)Nc1ccc(-c2nc(N3CC4CCC(C3)O4)c3cnn(C4CCC5(CC4)OCCO5)c3n2)cc1 readingunit=% endpointvalue=93
compound=N#Cc1cc(-c2ccnc(Nc3ccc(-n4cnc(-c5cccnc5)n4)cc3)n2)cc(N2CCOCC2)c1 readingunit=% endpointvalue=83
compound=COc1cc2ncnc(Nc3cccc(Cl)c3)c2cc1OC readingunit=% endpointvalue=81
compound=CCc1nc(-c2cccc(C)c2)c(-c2ccnc(NC(=O)c3ccccc3)c2)s1 readingunit=% endpointvalue=85
compound=CCN1CCN(Cc2ccc(NC(=O)c3ccc(C)c(/C=C/c4cnc5[nH]ccc5c4OC)c3)cc2C(F)(F)F)CC1 readingunit=% endpointvalue=30
compound=COc1cc(N2CCC(C(N)=O)CC2)ccc1Nc1nc(N)c(Cl)c(Nc2ccccc2S(=O)(=O)C(C)C)n1 readingunit=% endpointvalue=100
compound=CCN(CCO)CCCOc1ccc2c(Nc3cc(CC(=O)Nc4cccc(F)c4)[nH]n3)ncnc2c1 readingunit=% endpointvalue=69
compound="CC1=C(C(=O)Nc2cc3cn[nH]c3cc2F)C(c2ccc(C(F)(F)F)cc2)CC(=O)N1 (configuration not stated)" readingunit=% endpointvalue=93
compound=COc1cc2c(Nc3ccc(NC(=O)c4ccccc4)cc3)ncnc2cc1OCCCN1CCOCC1 readingunit=% endpointvalue=55
compound=C=CC(=O)Nc1ccc(C(=O)c2sc(Nc3ccc(N4CCN(C)CC4)cc3OC)nc2N)cc1 readingunit=% endpointvalue=8.2
